- Test: In vitro test - hydrolysis in phosphate buffer pH 7.5 (half life)
- Type: physicochemical
- Condition Label: trans form, hydrochloride salt, HPLC, UV 210 nm
Structures can show the parent of a compound that is named as a salt.
half-life at 2300 µM: recorded values
Unit h implied. Number only.

Below, each entry is followed by its recorded half-life at 2300 µM result.
[
  {
    "Compound": "CCOC(=O)OC(C)OC(=O)[C@H]1CC[C@H](CN)CC1 (stereo partly drawn) [Example 3, hydrochloride]",
    "half-life at 2300 µM, h": 90
  },
  {
    "Compound": "CC(OC(=O)[C@H]1CC[C@H](CN)CC1)OC(=O)[C@H]1CC[C@H](CN)CC1 [Example 13, dihydrochloride]",
    "half-life at 2300 µM, h": 70
  }
]

Consider now this further compound.
Sure, the documented half-life at 2300 µM for NC[C@H]1CC[C@H](C(=O)OCOC(=O)[C@H]2CC[C@H](CN)CC2)CC1 [Example 11, dihydrochloride] is 26

----------
- Test: In vitro test - hydrolysis in human plasma (half life)
- Assay type: in vitro ADME
- Condition Label: 37° C., 2.3·10^-3 M, trans form, hydrochloride salt, HPLC, UV 210 nm
Structures can show the parent of a compound that is named as a salt.
half-life at 2300 µM: recorded values
Unit min implied. Number only.

Below, each entry is followed by its recorded half-life at 2300 µM result.
[
  {
    "Compound": "CC(OC(=O)[C@H]1CC[C@H](CN)CC1)OC(=O)[C@H]1CC[C@H](CN)CC1 [Example 13, dihydrochloride]",
    "Scale Unit": "min",
    "half-life at 2300 µM": 11
  },
  {
    "Compound": "CC(C)(C)C(=O)OCOC(=O)[C@H]1CC[C@H](CN)CC1 [Example 1, hydrochloride]",
    "Scale Unit": "min",
    "half-life at 2300 µM": 5
  },
  {
    "Compound": "CC(C)C(=O)OCOC(=O)[C@H]1CC[C@H](CN)CC1 [Example 6]",
    "Scale Unit": "min",
    "half-life at 2300 µM": 0.5
  },
  {
    "Compound": "NC[C@H]1CC[C@H](C(=O)OCOC(=O)[C@H]2CC[C@H](CN)CC2)CC1 [Example 11, dihydrochloride]",
    "Scale Unit": "min",
    "half-life at 2300 µM": 1.5
  },
  {
    "Compound": "CCOC(=O)OC(C)OC(=O)[C@H]1CC[C@H](CN)CC1 (stereo partly drawn) [Example 3, hydrochloride]",
    "Scale Unit": "min",
    "half-life at 2300 µM": 1.5
  }
]

Consider now this further compound.
Sure, the documented half-life at 2300 µM for CC(=O)OC(C)OC(=O)[C@H]1CC[C@H](CN)CC1 (stereo partly drawn) [Example 5] is 9

# credit: patent US4483867A
